- Test Target: T1, streptavidin (UniProt P22629 37-163, limits assumed)
- T1 construct: The same protein was used free (EMSA, Biacore, SBIA) and immobilized on a matrix or plate; also called immobilized streptavidin; Ultralink immobilized streptavidin plus
- T1 sequence (P22629 37-163 limits assumed): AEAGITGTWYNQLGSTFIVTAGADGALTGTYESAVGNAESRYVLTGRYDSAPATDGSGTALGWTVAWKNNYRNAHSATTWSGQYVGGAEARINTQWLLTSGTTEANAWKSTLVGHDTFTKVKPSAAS
- Procedure Summary: streptavidin column-binding assay: 35S-labeled DNA-tagged peptide bound to immobilized streptavidin and eluted with biotin
Parameter Measured: % binding (%)
Dear colleague, please return just the value in %, with no unit written.

Record summary for SB19 C-terminal truncation construct C2 (C-terminus joined through puromycin to a short DNA oligonucleotide (DNA-tagged peptide); 35S-methionine label) peptide: MDEKTTGWRGGHVVEGLAGELEQLRARLEHHPQGQREPLVQEVEDVDEGLVQDLHGVVAGLLDPVEMMSGGCKLG : reported % binding = 88

Record summary for MDGHVVEGLAGELEQLRARLEHHPQGQREPMMSGGCKLG (One member of the group m27; Assayed as a DNA-tagged peptide) [N1] : reported % binding = 69

Record summary for SB19 C-terminal truncation construct C1 (C-terminus joined through puromycin to a short DNA oligonucleotide (DNA-tagged peptide); 35S-methionine label) peptide: MDEKTTGWRGGHVVEGLAGELEQLRARLEHHPQGQREPLVQEVEDVDEGLVQDLHGVVAGLLDPVEKLLTDWFKKFKNVSMMSGGCKLG : reported % binding = 87
